Values were extracted from the nanobody polyreactivity screen of Harvey et al. (2022).

# PROCEDURE_SUMMARY: yeast display, Sf9 membrane polyspecificity reagent, FACS + sequencing; frameworks hold sequencing errors
REPORTED_ENDPOINT: polyreactivity (PSR sort gate)

The examples below pair each entry with its known result.
QVQLVESGGGLVQAGGSLRLSCAASGSTFHSNAMGGYRQAPGKERELVAAISSGGSTNYADSVKGRFTISRDNAKNTVYLQMNSLKPEDTAVYYCAAVWRYLGYTAMDYWGQGTQVTVSS low polyreactivity
QDQLVESGGGLVQAGGSLRLSCAASGFTFNANAMGWYRQAPGKERELVAAITRSGGRTYYADSVKGRFTISRDNAKNTVYLQMNSLKPEDTAVYYCANLVTNGRYDSWGQGTQVTVSS high polyreactivity
QVQLVESGGGLVQAGGSLRLSCDASGRTFRYYAMGWSRQAPGKERELVAAISASGGSTFYADSVKGRFTISRDNAKNSVYLQMKSLKPEDTAVYYCAAYHYCVFPYKQYDYWGQGTQVTVSS high polyreactivity
QVQLVESGGGLVQAGGSLRLSCAASGLTFLVYAMGWYRQAPGKERELVAAITSIGDSTFYADSVKGRFTISRDNAKNTVYLQMNSLKPEDSAVYYCNADGPAGDIKFTLMDYDYWGQGTQVTVSS low polyreactivity
QVQLVESGGGLVQAGGSLRLSCAASGRTFGRYAMGWYRQAPGKERELVARIRTSGGRTYYADSVKGRFTISRDIAKNTVYLLMNSLNPEDTAVYYCGTSSQPWYYWSTQGDDFWGQGTQVSVSS low polyreactivity

### Prompt # lookup: polyreactivity (PSR sort gate) of QVQLVESGGGLVQAGGSLRLSCAASGFTLKYYAMGWYRQAPGKERELVAAISSGDSTNYADSVKGRFTISRDNAKNTVYLQMNSLKPEDTAVYYCNTRYPSSSYYYWGQGTQVTVSS
### Response low polyreactivity

### Prompt # lookup: polyreactivity (PSR sort gate) of QVQIVESGGGLVQAGGSLRLSCAASGSIFTYYAMGWYRQAPGKERELVAAINWSGGSTYYADSVKGRFTISRDNAKNTVYLQMNSLKPEDTAVYYCATDYYARRHSPRYDYWGQGTQLTVSS
### Response low polyreactivity

### Prompt # lookup: polyreactivity (PSR sort gate) of QVQLVESGGGIVQAGGSLRVSCAASGFTFHKYAMGWYRQAPGTERELVAVISQSASSTYYADSVKGRFTISRDNAKNTVYFQMNGLKPEDTAVYYCNAKYYRYNRRNYWGQVTQVTVSS
### Response high polyreactivity

### Prompt # lookup: polyreactivity (PSR sort gate) of QVQLVESGGGLVQAGGSLRLSCAASGRIFTHNSMGWYRQAPGKERELVAAISYSGVSTYYADSVKGRFTISRDTAKNTVFLQMNSLKPEDTAVYYCNAVWEYSGKSDYWGQGTQVSVSS
### Response low polyreactivity

### Prompt # lookup: polyreactivity (PSR sort gate) of QVQLVETGGGLVQASGSLRLSSAASGRIFTRYAMGWYRQAHGKERELVPAITRGGSTYYADSVKGRFTISRDNAKNTVYLQMNSLKPEDTAVYYCAADWFGISVVRDPFDHWGQGTQVTVSS
### Response high polyreactivity

### Prompt # lookup: polyreactivity (PSR sort gate) of QVQLVESGGGLLQAGGSLRLSCAASGRTIDVYAMGWYTQAPGKERELVAAISWSGGGTYYADSVKGRFTISRDNAKNTVYFQMHSLKAEDTAVYYCAAALTFALDPNRYTYSDYYYWGQGTQVTVSS
### Response low polyreactivity
